Form field: pEC50 (one value per entry).
Molecular target: human S1P1 (EDG-1) (Homo sapiens)
Construct: expressed in transfected cells; host or cells: CHO-K1 cells stably expressing HA-Gqi5
Sequence (P21453 whole entry): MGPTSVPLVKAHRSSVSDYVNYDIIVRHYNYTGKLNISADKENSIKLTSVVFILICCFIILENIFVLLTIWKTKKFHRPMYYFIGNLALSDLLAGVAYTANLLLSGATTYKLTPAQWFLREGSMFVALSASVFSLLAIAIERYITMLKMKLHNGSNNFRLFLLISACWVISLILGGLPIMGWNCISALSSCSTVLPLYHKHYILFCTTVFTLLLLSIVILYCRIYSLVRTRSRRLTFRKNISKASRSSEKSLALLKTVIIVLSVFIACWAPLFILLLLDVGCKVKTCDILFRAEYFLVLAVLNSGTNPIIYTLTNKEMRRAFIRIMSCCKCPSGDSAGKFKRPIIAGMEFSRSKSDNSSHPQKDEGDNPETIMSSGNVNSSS
Experiment: Intracellular calcium flux assay (agonist activity against S1P1 (EDG-1) receptor)
Format: cell-based
Conditions: CHO cells expressing Gqi5 and human S1P1 (EDG-1); intracellular calcium change; Table 2
pEC50: −log10 of the molar value.

Compound | pEC50
O=C(O)CCNCC(=O)N1CCc2cc(OCc3ccc(-c4ccccc4)c(C(F)(F)F)c3)ccc21 [Example 31] | 8.20
N[C@H](CC(=O)O)C(=O)N1CCc2cc(OCc3ccc(-c4ccccc4)c(C(F)(F)F)c3)ccc21 [Example 14] | 8.36
N[C@H](CC(=O)O)C(=O)N1CCc2cc(OCc3cc(-c4ccccc4)c(C(F)(F)F)s3)ccc21 [Example 10] | 8.89
O=C(O)CCNCC(=O)N1CCc2cc(OCc3cc(-c4ccccc4)c(C(F)(F)F)s3)ccc21 [Example 29] | 8.62
CN(CCC(=O)O)CC(=O)N1CCc2cc(OCc3cc(-c4ccccc4)c(C(F)(F)F)s3)ccc21 [Example 30] | 8.54
